Each entry below lists one item and its recorded pIC50 value.
- PROTOCOL_SUMMARY: Inhibition of HCV genotype 1a NS3/4A protease assessed as substrate cleavage using Ac-C(Eu)DDMEEAbu(COO)ASK(QSY7)-amide as substrate incubated for 30 mins prior to substrate addition measured after 2.5 hrs by time-resolved fluorescence assay
- Set-up: species or system Hepatitis C virus subtype 1a
pIC50 is a log-scale quantity: -log10 of the concentration expressed in molar.

Sample records with pIC50:
>>> measured_number("COc1ccc2nc3c4c(c2c1)CC[C@]1(C[C@H]2C(=O)N[C@]5(C(=O)NS(=O)(=O)C6(C)CC6)C[C@H]5/C=C\\CCCCC[C@H](NC(=O)O[C@@H]5CCC[C@H]5CCCCC3)C(=O)N2C1)O4")
10.30
>>> measured_number("C=C[C@@H]1C[C@]1(NC(=O)[C@@H]1C[C@]23CCc4c(c(nc5ccc(OC)cc45)CCCCC[C@@H]4CCC[C@H]4OC(=O)N[C@@H](C(C)(C)C)C(=O)N1C2)O3)C(=O)NS(=O)(=O)C1(C)CC1")
10.40
>>> measured_number("C=C[C@@H]1C[C@]1(NC(=O)[C@@H]1C[C@@H]2CN1C(=O)[C@H](C(C)(C)C)NC(=O)O[C@@H]1C[C@H]1CCCCCc1nc3ccc(OC)cc3nc1O2)C(=O)NS(=O)(=O)C1CC1 [GRAZOPREVIR ANHYDROUS]")
10.70
>>> measured_number("C=C[C@@H]1C[C@]1(NC(=O)[C@@H]1C[C@]23CCc4c(c(nc5ccc(OC)cc45)CCCCC[C@@H]4C[C@H]4OC(=O)N[C@@H](C(C)(C)C)C(=O)N1C2)O3)C(=O)NS(=O)(=O)C1CC1")
10.70
>>> measured_number("C=C[C@@H]1C[C@]1(NC(=O)[C@@H]1C[C@]23CCc4c(c(nc5ccc(OC)cc45)CCCCC[C@@H]4C[C@H]4OC(=O)N[C@@H](C4(C)CCCCC4)C(=O)N1C2)O3)C(=O)NS(=O)(=O)C1(C)CC1")
10.30
>>> measured_number("C=C[C@@H]1C[C@]1(NC(=O)[C@@H]1C[C@]23CCc4c(c(nc5ccc(OC)cc45)CCCCC[C@@H]4CCC[C@H]4OC(=O)N[C@@H](C(C)(C)C)C(=O)N1C2)O3)C(=O)NS(=O)(=O)C1CC1")
10.70

Return the recorded pIC50 value; entry: `C=C[C@@H]1C[C@]1(NC(=O)[C@@H]1C[C@]23CCc4c(c(nc5ccc(OC)cc45)CCCCC[C@@H]4C[C@H]4OC(=O)N[C@@H](C4(C)CCCCC4)C(=O)N1C2)O3)C(=O)NS(=O)(=O)C1CC1`
10.30

Provide one value: measured pIC50 of `CC[C@@H]1C[C@]1(NC(=O)[C@@H]1C[C@]23CCc4c(c(nc5ccc(OC)cc45)CCCCC[C@@H]4C[C@H]4OC(=O)N[C@@H](C(C)(C)C)C(=O)N1C2)O3)C(=O)NS(=O)(=O)C1CC1`
10.22

Fill in reported pIC50 for this entry: `COc1ccc2nc(C(F)(F)F)c3c(c2c1)CC[C@]1(C[C@H]2C(=O)N[C@]4(C(=O)NS(=O)(=O)C5(C)CC5)C[C@H]4/C=C\CCCCC[C@H](NC(=O)OCC(C)C)C(=O)N2C1)O3`
11.00

Assign pIC50 to the following record: `C=C[C@@H]1C[C@]1(NC(=O)[C@@H]1C[C@]23CCc4c(c(nc5ccc(OC)cc45)CCCCC[C@@H]4C[C@H]4OC(=O)N[C@@H](C(C)(C)C)C(=O)N1C2)O3)C(=O)NS(=O)(=O)C1(C)CC1`
10.40
